# TARGET_ENTITY: thiol peroxidase HpTpx (Helicobacter pylori, UniProt O25151)
# Sequence (O25151 2-166): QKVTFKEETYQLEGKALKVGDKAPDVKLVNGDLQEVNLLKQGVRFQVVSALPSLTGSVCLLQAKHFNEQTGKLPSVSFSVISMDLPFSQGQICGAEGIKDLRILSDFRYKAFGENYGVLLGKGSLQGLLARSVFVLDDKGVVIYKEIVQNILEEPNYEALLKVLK
# ASSAY_DETAILS: Intact protein MS and peroxidase assay of modified enzyme; EC50 is from in situ competition with Metro-P3 in H. pylori
# Type: cell-based
# Set-up: gene tpx; recombinant HpTpx wild type, modified during anaerobic expression in E. coli
MEASURED_PROPERTY: EC50
Enter the number, and then the unit.

-- ask Kindly state the measured EC50 obtained for "Cc1ncc([N+](=O)[O-])n1CCO" with thiol peroxidase HpTpx (Helicobacter pylori, UniProt O25151).
-- reply 250 µM

----------
# TARGET_ENTITY: 60 kDa chaperonin HpGroEL (Helicobacter pylori, UniProt P42383)
# Sequence (P42383 whole entry): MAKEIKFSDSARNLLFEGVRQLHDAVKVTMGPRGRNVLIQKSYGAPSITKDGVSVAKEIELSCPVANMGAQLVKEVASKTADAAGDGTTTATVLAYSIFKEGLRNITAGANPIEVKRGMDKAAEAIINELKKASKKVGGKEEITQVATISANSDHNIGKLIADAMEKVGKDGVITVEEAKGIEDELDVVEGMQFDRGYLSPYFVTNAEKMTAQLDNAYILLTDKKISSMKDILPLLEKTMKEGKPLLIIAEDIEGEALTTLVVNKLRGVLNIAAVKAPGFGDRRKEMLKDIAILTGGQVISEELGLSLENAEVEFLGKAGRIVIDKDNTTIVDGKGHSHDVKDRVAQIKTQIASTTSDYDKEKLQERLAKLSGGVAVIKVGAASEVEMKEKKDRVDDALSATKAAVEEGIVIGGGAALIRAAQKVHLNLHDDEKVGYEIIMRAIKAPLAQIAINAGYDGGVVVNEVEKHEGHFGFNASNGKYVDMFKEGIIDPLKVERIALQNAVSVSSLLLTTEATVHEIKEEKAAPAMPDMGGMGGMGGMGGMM
# ASSAY_DETAILS: Gel-based in situ competitive labelling against Metro-P3 (ABPP)
# Format: cell-based
# Design: gene groEL; endogenous, H. pylori 26695 live cells
MEASURED_PROPERTY: EC50 (µM)
Your answer is read as µM, so omit the unit and give the number.

-- ask Give recorded EC50 with 60 kDa chaperonin HpGroEL (Helicobacter pylori, UniProt P42383) for the following compound: CCOCCn1c([N+](=O)[O-])cnc1C [MF-03]
-- reply 40

----------
# TARGET_ENTITY: thiol peroxidase HpTpx (Helicobacter pylori, UniProt O25151)
# ASSAY_DETAILS: Gel-based in situ competitive labelling against Metro-P3 (ABPP)
# Type: cell-based
# Design: gene tpx; endogenous, H. pylori 26695 live cells
MEASURED_PROPERTY: EC50 (µM)
Write it as a number; the unit µM goes unstated.

-- ask Which EC50 value is on record for CCOCCn1c([N+](=O)[O-])cnc1C [MF-03] ?
-- reply 17
